test: Microsomal stability assay, human
Assay type: in vitro ADME
setupConditions: human liver microsomes
resultType: microsomal CLint at 1 h, 1 µM (µL/min/mg)
Give bare numbers, in µL/min/mg.

get_value(item= `CC(C)C[C@H](NC(=O)CNC(=O)[C@H](C)NC(=O)c1ccc(S[C@@H]2O[C@H](CO)[C@H](O)[C@H](O)[C@H]2O)cc1)C(=O)N[C@@H](C)C(=O)N[C@H]1CCN(c2cc3c(cc2F)c(=O)c(C(=O)O)cn3C2CC2)C1` , readout=microsomal CLint at 1 h, 1 µM) returns 15

###

test: Microsomal stability assay, mouse
Format: in vitro ADME
setupConditions: mouse liver microsomes
resultType: microsomal CLint at 1 h, 1 µM (µL/min/mg)
Numbers only, in µL/min/mg.

get_value(item= `CC(C)C[C@H](NC(=O)CNC(=O)[C@H](C)NC(=O)c1ccc(S(=O)(=O)NC[C@H]2O[C@@H](C)[C@@H](O)[C@@H](O)[C@@H]2O)cc1)C(=O)N[C@@H](C)C(=O)N[C@H]1CCN(c2cc3c(cc2F)c(=O)c(C(=O)O)cn3C2CC2)C1` , readout=microsomal CLint at 1 h, 1 µM) returns 6.4

###

test: Microsomal stability assay, human
Type: in vitro ADME
setupConditions: human liver microsomes
resultType: microsomal CLint at 1 h, 100 µM

get_value(item= CC(C)C[C@H](NC(=O)CNC(=O)[C@H](C)NC(=O)c1ccc(S(=O)(=O)NC[C@H]2O[C@@H](C)[C@@H](O)[C@@H](O)[C@@H]2O)cc1)C(=O)N[C@@H](C)C(=O)N[C@H]1CCN(c2cc3c(cc2F)c(=O)c(C(=O)O)cn3C2CC2)C1 [Compound 37] , readout=microsomal CLint at 1 h, 100 µM) returns 7.8 µL/min/mg

###

Provide the reported half-life at 1 h, 100 µM of each item.
test: Microsomal stability assay, mouse
Assay type: in vitro ADME
setupConditions: mouse liver microsomes
Give bare numbers, in h.

- CC(C)C[C@H](NC(=O)CNC(=O)[C@H](C)NC(=O)c1ccc(S[C@@H]2O[C@H](CO)[C@H](O)[C@H](O)[C@H]2O)cc1)C(=O)N[C@@H](C)C(=O)N[C@H]1CCN(c2cc3c(cc2F)c(=O)c(C(=O)O)cn3C2CC2)C1: 1.67

Now for the compound whose half-life at 1 h, 100 µM we want.
get_value(item= `CC(C)C[C@H](NC(=O)CNC(=O)[C@H](C)NC(=O)c1ccc(S(=O)(=O)NC[C@H]2O[C@@H](C)[C@@H](O)[C@@H](O)[C@@H]2O)cc1)C(=O)N[C@@H](C)C(=O)N[C@H]1CCN(c2cc3c(cc2F)c(=O)c(C(=O)O)cn3C2CC2)C1` , readout=half-life at 1 h, 100 µM) returns 3.6
